Reported Kd values for a set of compounds
target: N-terminally FLAG-tagged PARP2 (amino acids 1-583) (Homo sapiens, UniProt Q9UGN5); construct: N-terminally FLAG-tagged PARP2 (amino acids 1-583); test: PARP2 probe displacement HTRF assay; type: binding; conditions: binned Kd, probe displacement HTRF
Sequence (Q9UGN5 whole entry, the tested form may be a part): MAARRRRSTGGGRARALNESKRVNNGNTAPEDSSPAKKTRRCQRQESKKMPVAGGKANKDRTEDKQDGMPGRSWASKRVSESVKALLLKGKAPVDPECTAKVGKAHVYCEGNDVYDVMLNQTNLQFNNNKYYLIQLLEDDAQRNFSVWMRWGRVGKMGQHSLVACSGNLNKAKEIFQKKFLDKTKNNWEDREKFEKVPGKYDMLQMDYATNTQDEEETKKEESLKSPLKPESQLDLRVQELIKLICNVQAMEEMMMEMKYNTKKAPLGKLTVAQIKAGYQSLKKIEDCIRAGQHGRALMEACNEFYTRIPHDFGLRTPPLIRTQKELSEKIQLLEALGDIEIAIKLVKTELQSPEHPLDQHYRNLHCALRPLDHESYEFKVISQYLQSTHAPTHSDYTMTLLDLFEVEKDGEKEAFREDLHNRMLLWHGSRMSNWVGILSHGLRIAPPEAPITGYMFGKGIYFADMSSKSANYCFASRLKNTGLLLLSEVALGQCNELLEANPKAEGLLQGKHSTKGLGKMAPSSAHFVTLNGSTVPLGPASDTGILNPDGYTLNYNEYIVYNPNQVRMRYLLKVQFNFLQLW

CNC(=O)c1ccc(N2CCC(N3CCC(c4cc5c(c(=O)[nH]4)CCCC5)C3)CC2)cn1 (racemic) [Compound 336rac]: 10 to 100 nM
CNC(=O)c1ncc(N2CCC(N3CCC(c4cc5ccc(F)cc5c(=O)[nH]4)C3)CC2)c(C(F)(F)F)n1 (single isomer, unassigned) [Compound 266b]: > 10000 nM
CNC(=O)c1ccc(N2CCC(N3CCC(c4cc5c(F)ccc(F)c5c(=O)[nH]4)C3)CC2)c(F)n1 (single isomer, unassigned) [Compound 323b]: 10 to 100 nM
CNC(=O)c1ccc(N2CCC(N3CC4(c5nc6c(c(=O)[nH]5)CCC6)CC3C4)CC2)c(F)n1 [Compound 302]: > 10000 nM
CNC1(c2ccc(N3CCC(N4CCC(c5nc6ccccc6c(=O)[nH]5)C4)CC3)cn2)CC1 (racemic) [Compound 412rac]: > 10000 nM
CCN1CCCc2c1nc(C13CC(C1)N(C1CCN(c4ccc(C(=O)NC)nc4F)CC1)C3)[nH]c2=O [Compound 384]: 100 to 1000 nM

Problem: Form field - read-out: Kd; system: N-terminally FLAG-tagged PARP2 (amino acids 1-583) (Homo sapiens, UniProt Q9UGN5); submitted item: CNC(=O)c1ccc(N2CCC(N3CCC(c4[nH]c(=O)c5ccccc5c4C(F)(F)F)C3)CC2)cn1 (single isomer, unassigned) [Compound 404b]
Result: 1000 to 10000 nM

Problem: Here is the next compound: CNC(=O)c1ccc(N2CCC(N3CC4(c5nc6cccc(F)c6c(=O)[nH]5)CC3C4)CC2)cn1 [Compound 227]
Result: 100 to 1000 nM

Problem: Queued: O=C(NCC(F)F)c1ccc(N2CCC(N3CCC(c4cc5cccc(F)c5c(=O)[nH]4)C3)CC2)c(F)n1 (single isomer, unassigned) [Compound 390a]
Result: 100 to 1000 nM

Problem: Okay, and CCc1ccc(C2CCN(C3CCN(c4ccc(C(=O)NC5CC5)nc4F)CC3)C2)[nH]c1=O (single isomer, unassigned) [Compound 353a] ?
Result: 100 to 1000 nM

Problem: Proceed to O=C(NC1CC1)c1ccc(N2CCC(N3CC4(c5nc6cccc(F)c6c(=O)[nH]5)CC3C4)CC2)c(F)n1 [Compound 376]
Result: 100 to 1000 nM

Problem: And for CCc1ccc(C2(F)CCN(C3CCN(c4ccc(C(=O)NC)nc4F)CC3)C2)[nH]c1=O (racemic) [Compound 415rac] ?
Result: > 10000 nM

Problem: Also need CNC(=O)c1ccc(N2CCC(N3CCC(c4cc5cccc(F)c5c(=O)[nH]4)C3)CC2)c(F)c1 (single isomer, unassigned) [Compound 371a] , thanks.
Result: 10 to 100 nM

---

molecular target: full length N-terminally FLAG-tagged PARP1 (Homo sapiens); assay: PARP1 biochemical DELFIA assay (auto-PARylation); design: recombinant full length human N-terminally FLAG-tagged PARP1; conditions: binned IC50, biochemical auto-PARylation assay
Sequence (P09874 whole entry): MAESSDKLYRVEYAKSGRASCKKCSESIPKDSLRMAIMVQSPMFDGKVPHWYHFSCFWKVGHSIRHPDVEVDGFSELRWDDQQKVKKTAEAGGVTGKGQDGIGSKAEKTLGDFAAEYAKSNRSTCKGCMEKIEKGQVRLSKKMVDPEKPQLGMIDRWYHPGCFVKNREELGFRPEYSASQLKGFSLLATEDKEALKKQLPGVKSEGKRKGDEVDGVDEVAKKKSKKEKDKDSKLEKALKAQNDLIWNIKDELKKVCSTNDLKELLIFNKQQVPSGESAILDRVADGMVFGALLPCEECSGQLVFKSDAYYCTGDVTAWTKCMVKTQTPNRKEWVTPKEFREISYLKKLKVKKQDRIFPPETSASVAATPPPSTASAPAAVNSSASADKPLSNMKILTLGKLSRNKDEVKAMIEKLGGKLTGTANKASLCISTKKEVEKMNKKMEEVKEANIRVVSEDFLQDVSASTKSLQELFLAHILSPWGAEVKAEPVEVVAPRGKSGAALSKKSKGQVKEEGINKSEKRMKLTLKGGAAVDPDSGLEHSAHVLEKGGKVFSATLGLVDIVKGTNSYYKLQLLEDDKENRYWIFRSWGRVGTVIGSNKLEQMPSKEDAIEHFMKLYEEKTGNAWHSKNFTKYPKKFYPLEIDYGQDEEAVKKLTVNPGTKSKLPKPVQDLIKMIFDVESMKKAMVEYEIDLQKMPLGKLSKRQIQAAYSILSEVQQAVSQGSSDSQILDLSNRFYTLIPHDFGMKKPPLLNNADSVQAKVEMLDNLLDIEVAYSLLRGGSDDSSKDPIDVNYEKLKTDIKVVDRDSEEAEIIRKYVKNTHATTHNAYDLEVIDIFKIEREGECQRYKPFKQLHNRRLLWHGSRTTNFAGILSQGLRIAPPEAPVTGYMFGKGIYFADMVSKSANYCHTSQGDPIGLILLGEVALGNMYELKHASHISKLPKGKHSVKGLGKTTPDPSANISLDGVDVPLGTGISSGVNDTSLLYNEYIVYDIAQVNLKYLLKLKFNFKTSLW
pIC50: −log10 of the molar value.
property: pIC50

O=C(NC1CC1)c1ccc(N2CCC(N3CCC(c4cc5cccc(F)c5c(=O)[nH]4)C3)CC2)cn1 (single isomer, unassigned) [Compound 339b]: > 8.00
CNC(=O)c1ncc(N2CCC(N3CCC(c4cc5cccc(F)c5c(=O)[nH]4)C3)CC2)c(C(F)(F)F)n1 (single isomer, unassigned) [Compound 277b]: 7.00 to 8.00

Problem: Any idea what pIC50 was measured for CNC(=O)c1ccc(N2CCC(N3CCC(c4cc5ncc(Cl)cc5c(=O)[nH]4)C3)CC2)cn1 (racemic) [Compound 329rac] ?
Result: > 8.00

---

target: UniProt:P09874; assay: PARP1 biochemical DELFIA assay (auto-PARylation); parameters: recombinant full length human N-terminally FLAG-tagged PARP1; settings: binned IC50, PARP1 biochemical DELFIA assay
pIC50: −log10 of the molar value.
Here, each record is paired with measured pIC50 data.

Problem: I would be grateful if you could share the reported pIC50 for O=C(NCCF)c1ccc(N2CCC(N3CCCC(c4nc5ccccc5c(=O)[nH]4)C3)CC2)cn1 (single isomer, unassigned) [Compound 110a] .
Result: > 8.00

Problem: // query: CNC(=O)c1ccc(N2CCC(N3CCC(c4ccc(C5CC5)c(=O)[nH]4)C3)CC2)cn1 (racemic)
Result: > 8.00

---

molecular target: N-terminally FLAG-tagged PARP2 (amino acids 1-583) (Homo sapiens); construct: N-terminally FLAG-tagged PARP2 (amino acids 1-583); assay: PARP2 probe displacement HTRF assay; type: binding; settings: binned Kd, PARP2 probe displacement HTRF
property: Kd

CNC(=O)c1ccc(N2CC(N3CCC(c4nc5ccccc5c(=O)[nH]4)C3)C2)cn1 (single isomer, unassigned) [Compound 61b]: 1000 to 10000 nM

Problem: Can you share its Kd? I mean this compound: CNC(=O)c1ccc(N2CCC(N3CCC(c4ncc(C(F)(F)F)c(=O)[nH]4)C3)CC2)cn1 (single isomer, unassigned) [Compound 56b]
Result: > 10000 nM

Problem: Then CNC(=O)c1ccc(N2CCC(N3CCC(c4cc5ccc(F)cc5c(=O)[nH]4)C3)CC2)cn1 (single isomer, unassigned) [Compound 154b] ?
Result: 10 to 100 nM

Problem: Also need CNC(=O)c1ccc(N2CCC(N3CCC(c4nc5ccccc5c(=O)[nH]4)C3)CC2)nc1 (single isomer, unassigned) [Compound 46b] , thanks.
Result: 100 to 1000 nM

Problem: Let us now turn to CNC(=O)c1ccc(N2CCC(N3CCCC(c4ccc(OC)c(=O)[nH]4)C3)CC2)cn1 (single isomer, unassigned) [Compound 147b]
Result: > 10000 nM

Problem: Another compound to check: O=c1[nH]c(C2CCN(C3CCN(c4ccc(F)cc4F)CC3)C2)nc2ccccc12 (single isomer, unassigned) [Compound 107b]
Result: 100 to 1000 nM

Problem: Thanks! And CNC(=O)c1ccc(N2CCC(N3CCC(c4nc5ccc(F)cc5c(=O)[nH]4)C3)CC2)cn1 (single isomer, unassigned) [Compound 64a] ?
Result: 100 to 1000 nM

Problem: Another: CNC(=O)c1ccc(N2CCC(N3CCC(c4nc5ccc(Cl)cc5c(=O)[nH]4)C3)CC2)cn1 (single isomer, unassigned) [Compound 68a]
Result: 100 to 1000 nM

Problem: And then CNC(=O)c1ccc(N2CCC(N3CCC(c4nc5c(c(=O)[nH]4)CCCN5)C3)CC2)cn1 (single isomer, unassigned) [Compound 214a] , what is it?
Result: 100 to 1000 nM

Problem: Can you handle O=c1[nH]c(C2CCN(C3CCN(c4ccccc4)CC3)C2)nc2ccccc12 (single isomer, unassigned) [Compound 32a] next?
Result: 1000 to 10000 nM

---

molecular target: UniProt:P09874; assay: PARP1 probe displacement HTRF assay; details: read-out: PARP1 HTRF; binned Kd, probe displacement HTRF
Recorded Kd for the following compounds

Problem: Return reported Kd; argument: CNC(=O)c1ccc(N2CCC(N3CCC(c4nc5c(C(F)(F)F)c[nH]c5c(=O)[nH]4)C3)CC2)cn1 (single isomer, unassigned) [Compound 293a]
Result: > 10000 nM

Problem: Proceed to CCc1ccc(C2CCN(C3CCN(c4ccc(C(=O)NC5CC5)nc4C#N)CC3)C2)[nH]c1=O (single isomer, unassigned) [Compound 409b]
Result: < 10 nM

Problem: Please give the result for CNC1(c2ccc(N3CCC(N4CCC(c5nc6ccccc6c(=O)[nH]5)C4)CC3)cn2)CC1 (racemic) too.
Result: 100 to 1000 nM

Problem: Param item: CS(=O)(=O)Nc1ccc(N2CCC(N3CCC(c4cc5ccccc5c(=O)[nH]4)C3)CC2)cc1 (single isomer, unassigned) [Compound 251b]
Result: 10 to 100 nM

Problem: Then CNC(=O)c1ccc(N2CCC(N3CCC(c4cc5c(c(=O)[nH]4)CCC(=O)N5C)C3)CC2)cn1 (racemic) ?
Result: < 10 nM

Problem: Next compound up: CNC(=O)c1ccc(N2CCC(N3CCC(c4[nH]c(=O)c5cc(F)ccc5c4F)C3)CC2)cn1 (single isomer, unassigned) [Compound 401a]
Result: < 10 nM

---

molecular target: full length N-terminally FLAG-tagged PARP1 (Homo sapiens); test: PARP1 biochemical DELFIA assay (auto-PARylation); parameters: recombinant full length human N-terminally FLAG-tagged PARP1; conditions: binned IC50, PARP1 biochemical DELFIA assay
property: IC50

Examples with answers:
CCc1nc(C(=O)NC)ccc1N1CCC(N2CCCC(c3nc4ccccc4c(=O)[nH]3)C2)CC1 (single isomer, unassigned) [Compound 112b]: 0.01 to 0.1 µM
CCc1cnc(C2CCN(C3CCN(c4ccc(C(=O)NC)nc4)CC3)CC2)[nH]c1=O: 1 to 10 µM
N#Cc1ccc(N2CCC(N3CCC(c4nc5ccccc5c(=O)[nH]4)C3)CC2)cn1 (single isomer, unassigned) [Compound 69a]: < 0.01 µM
O=C(NCCF)c1ccc(N2CCC(N3CCC(c4nc5ccccc5c(=O)[nH]4)C3)CC2)cn1 (single isomer, unassigned) [Compound 117b]: < 0.01 µM
CNC(=O)c1ccc(N2CCC(N3CCC(c4cc5ccc(F)cc5c(=O)[nH]4)C3)CC2)c(Cl)n1 (racemic): < 0.01 µM

Problem: Entry under review: N#Cc1ccc(N2CCC(N3CCCC(c4nc5ccccc5c(=O)[nH]4)C3)CC2)nc1 (single isomer, unassigned) [Compound 74b] . Reported IC50?
Result: 0.01 to 0.1 µM

Problem: Now consider CNC(=O)c1ccc(N2CCC(N3CCC(c4cc5c(C(F)(F)F)cccc5c(=O)[nH]4)C3)CC2)cn1 (single isomer, unassigned) [Compound 167b] and answer again.
Result: < 0.01 µM

Problem: Now the same for CCc1ccc(C2CCN(C3CCN(c4ccc(C(=O)NC)nc4C(F)F)CC3)C2)[nH]c1=O (single isomer, unassigned) [Compound 164b]
Result: 0.01 to 0.1 µM

Problem: Item: CNC(=O)c1ccc(N2CCC(N3CCCC(c4nc5c(c(C(F)(F)F)nn5C)c(=O)[nH]4)C3)CC2)cn1 (single isomer, unassigned) [Compound 190a]
Result: 0.1 to 1 µM

Problem: And what about the compound CNC(=O)c1ccc(N2CCC(N3CCCC(F)(c4nc5ccccc5c(=O)[nH]4)C3)CC2)cn1 (single isomer, unassigned) [Compound 71a] ?
Result: 1 to 10 µM

Problem: Try CNC(=O)c1ccc(N2CCC(N3CCC(c4cc5cccc(Cl)c5c(=O)[nH]4)C3)CC2)cn1 (single isomer, unassigned) [Compound 128b] next.
Result: < 0.01 µM

Problem: Repeat with CNC(=O)c1ccc(N2CC(N3CCCC(Cc4nc5ccccc5c(=O)[nH]4)C3)C2)cn1 (single isomer, unassigned) [Compound 51a]
Result: 0.1 to 1 µM

Problem: One more compound: CNC(=O)c1ccc(N2CCC(N3CCC(c4nc5cccc(Cl)c5c(=O)[nH]4)C3)CC2)cn1 (single isomer, unassigned) [Compound 85b]
Result: < 0.01 µM

Source: patent US20250152585A1
